# TGI listing for each entry below
Tested on: SF-268 CNS
EXPERIMENT DESCRIPTION: NCI tumour cell line growth inhibition, 48 h
MEASURED QUANTITY: TGI

INSERT INTO measurements (molecule, measured_quantity, value_reported) VALUES
  ('N#Cc1[nH]c(=O)n(-c2ccccc2)c1N', 'TGI', '> 10 µM'),
  ('C[C@@H](c1ccccc1)n1c(N)c(C#N)c2ccc([N+](=O)[O-])cc2c1=O', 'TGI', '> 100 µM'),
  ('Cc1nnc(NS(=O)(=O)c2ccc(N=Nc3cc(N=Nc4ccc(S(=O)(=O)Nc5nnc(C)s5)cc4)c4c(NC(=O)C(Cl)Cl)cccc4c3OC(=O)C(Cl)Cl)cc2)s1 (tested in a mixture with another compound)', 'TGI', '> 100 µM'),
  ('CC1(C)/C(=C/N=O)N(O)C(C)(C)N1O', 'TGI', '> 100 µM'),
  ('Cc1[nH]c(=O)nc2[nH][nH]c(=O)c12', 'TGI', '> 100 µM'),
  ('C[Si](C)(C)OC1CC(=O)OC1n1cc(F)c(=O)[nH]c1=O (configuration not stated)', 'TGI', '> 100 µM'),
  ('CC1(C)C[C@@H]2C1CCC1(C)CC2(O)CC[C@H]1O (some centres not stated)', 'TGI', '> 100 µM'),
  ('Cc1cc(NC(=S)SCc2ccc(F)cc2)c([N+](=O)[O-])cc1C', 'TGI', '> 100 µM'),
  ('CC(=O)ONC(C(=O)C(C)(C)C)C(=O)C(C)(C)C', 'TGI', '> 100 µM'),
  ('NC(=O)c1cc(Cl)ccc1NC(=O)/C=C/c1ccccc1', 'TGI', '> 60.4 µM'),
  ('NNC(=O)c1c(SCc2ccccc2)nc2c3ccccc3ccn12', 'TGI', '> 100 µM'),
  ('O=C(/C=C/c1ccc2ccccc2c1)NCc1ccc(C(=O)NCCc2ccccc2)cc1', 'TGI', '> 100 µM');

----------
System: HS 578T breast
EXPERIMENT DESCRIPTION: NCI tumour cell line growth inhibition, 48 h
# key: entry, value: TGI
MEASURED QUANTITY: TGI

INSERT INTO assay_data (molecule, value_reported) VALUES
  ('COc1ccc2[nH]c3c4[nH]c5ccc(OC)cc5c4c4c(c3c2c1)C(=O)NC4=O', '> 25 µM'),
  ('Cc1ccc2c(c1)CC1(Cc3ccccc3C1=O)C2=O (centres undefined)', '> 100 µM'),
  ('CC1(C)C(=O)/C(=C\c2cccnc2)C[C@]2(C)[C@H]3CC[C@@H]4[C@H]5[C@H](C(=O)/C=C/c6cccnc6)CC[C@]5(C(=O)O)CC[C@@]4(C)[C@]3(C)CC[C@@H]12', '> 100 µM'),
  ('COc1cc2cc3c4cc(OC)c(OC)cc4cc[n+]3c(C)c2cc1OC (tested in a mixture with another compound)', '> 100 µM'),
  ('CC(=O)[C@@H](C)C(=O)N1C(=O)OC[C@@]12[C@@H]1CC[C@@H](C1)C2(C)C', '> 100 µM'),
  ('COc1ccc(-c2cc(-c3cc(C)cc(Br)c3O)no2)cc1', '> 100 µM'),
  ('O=C1NC2O[C@H](CNC(=O)c3cc(Br)c[nH]3)CC2(O)N1 (mixture of isomers)', '> 100 µM'),
  ('CC12OC(C(=O)C13CC3)C1C(=O)c3ccc4c(ccc5ccccc54)c3C(=O)C12 (centres undefined)', '> 100 µM'),
  ('C=CCCCCC/C=C\[C@@H](O)C#CC#C/C=C/CO', '> 100 µM');

----------
System: MOLT-4 leukemia
EXPERIMENT DESCRIPTION: NCI tumour cell line growth inhibition, 48 h
This section presents compounds with their documented TGI values.
MEASURED QUANTITY: TGI (µM)

INSERT INTO measurements (compound, readout_units, censor_symbol, value_reported) VALUES
  ('CCOC(=O)c1ccc(NCc2ccc3oc(=O)c(-c4ccccc4)nc3c2)cc1', 'µM', '=', 60.4),
  ('O=C(Nc1ccccc1-c1nc2ccccc2[nH]c1=O)c1ccccc1', 'µM', '>', 100),
  ('COC(=O)C(Cc1nc2ccccc2[nH]c1=O)C(NO)C(=O)Nc1c(Cl)cc([N+](=O)[O-])cc1Cl (stereo not given)', 'µM', '=', 67),
  ('C1=Cc2cc3c(c4nccc(c24)N1)OCO3', 'µM', '>', 46.8),
  ('CCOC(=O)C1SC(=Nc2ccc(C)c(C)c2)N=C1C (stereo not given)', 'µM', '>', 100);

----------
System: HOP-62 NSCLC
EXPERIMENT DESCRIPTION: NCI tumour cell line growth inhibition, 48 h
Property: TGI; scope: individual molecules
MEASURED QUANTITY: TGI

INSERT INTO results (molecule, measured_quantity, value_reported) VALUES
  ('CC1(C)C[C@@H]2C1CCC1(C)CC2(O)CC[C@H]1O (stereo not given in full)', 'TGI', '> 100 µM'),
  ('CC1=[N+]([O-])c2ccccc2C(=O)C1=O', 'TGI', '> 100 µM'),
  ('Cc1cc(C)c(NC(=O)c2sc3nc4c(cc3c2N)C(=O)CCC4)c(C)c1', 'TGI', '> 100 µM'),
  ('Nc1nc(Nc2cccnc2)sc1C(=O)c1ccccc1F', 'TGI', '> 93.8 µM'),
  ('CC(C)c1c(O)c(O)c2c(c1O)C(=O)C(O)=C1C(C)(C)CCC[C@@]12C', 'TGI', '> 100 µM'),
  ('Nc1nc(-c2ccccc2)cc(-c2ccc(OCc3ccccc3)cc2O)n1', 'TGI', '> 100 µM'),
  ('O=c1cc(-c2ccc(Oc3ccccc3)cc2)[nH]c2cc3c(cc12)OCO3', 'TGI', '> 100 µM'),
  ('O=C(Nc1cc(Cl)c(Cl)cc1Cl)C(=O)C1C(=O)NC(=S)NC1=O', 'TGI', '> 100 µM'),
  ('COC(=O)Nc1nc2ccc(S(=O)(=O)SC)cc2[nH]1', 'TGI', '> 100 µM'),
  ('CN(C(=O)Cc1cccc(N=C=S)c1)[C@H]1CCCC[C@@H]1N1CCCC1', 'TGI', '33.2 µM'),
  ('C=CCCC1(CC(Sc2ccccc2)P(=O)(c2ccccc2)c2ccccc2)OCCO1 (stereo not given)', 'TGI', '> 10 µM'),
  ('CC1(C)OC(=O)N(c2ccccc2)C12C=Cc1cc([N+](=O)[O-])ccc1O2 (stereo not given)', 'TGI', '> 100 µM'),
  ('CCCC1=C(CC)C(C(=O)Nc2c(C)cccc2C)=NC(S)N1 (stereo not given)', 'TGI', '> 100 µM'),
  ('Cc1cc2nc(C=C(C(F)(F)F)C(F)(F)F)oc2cc1C', 'TGI', '9.72 µM'),
  ('OCC1OC(n2cnc3c2NC=NC[C@H]3O)C(Cl)C1O (stereo not given in full)', 'TGI', '> 100 µM'),
  ('CC(=O)[C@@H](C)C(=O)N1C(=O)OC[C@@]12[C@@H]1CC[C@@H](C1)C2(C)C', 'TGI', '> 100 µM'),
  ('NS(=O)(=O)c1ccc(-c2ccc3c(NC(=O)C4CC4)n[nH]c3c2)cc1', 'TGI', '> 25 µM'),
  ('CCCN(CCC)C(=O)c1c([N+](=O)[O-])cc(C(F)(F)F)cc1[N+](=O)[O-]', 'TGI', '> 100 µM'),
  ('CC1(C)/C(=C/N=O)N(O)C(C)(C)N1O', 'TGI', '> 100 µM'),
  ('COc1cc(-c2nc3ccccn3c2/N=C/c2cc(Br)cc(Br)c2O)ccc1O', 'TGI', '52.5 µM'),
  ('O=C1NC(=S)NC(=O)C1C(c1ccc(O)cc1)C1C(=O)NC(=S)NC1=O', 'TGI', '> 100 µM'),
  ('O=C(NCP(=O)(c1ccccc1)c1ccccc1)OCc1ccccc1', 'TGI', '> 100 µM'),
  ('CCOC(=O)CC(C)C1(C(=O)OCC)CCCCC1=O (stereo not given)', 'TGI', '> 100 µM'),
  ('COc1ccccc1CNCCCN1C(=O)c2ccc3c4c(ccc(c24)C1=O)C(=O)N(CCCNCCNCCCN)C3=O', 'TGI', '14.2 µM'),
  ('NNC(=O)c1c(SCc2ccccc2)nc2c3ccccc3ccn12', 'TGI', '> 100 µM'),
  ('CCCCCCCCCCCCCCCC(=O)OCC(C[As](=O)(O)O)OC(=O)CCCCCCCCCCCCCCC (stereo not given)', 'TGI', '> 100 µM'),
  ('CCOC(=O)C(=O)Nc1ccccc1CC', 'TGI', '> 100 µM'),
  ('CSc1nnc(SC)nn1', 'TGI', '29.1 µM'),
  ('COc1ccc(C(=O)c2cc(OC)c(OC)c(OC)c2)cc1/C=C/C(=O)c1ccc(F)cc1', 'TGI', '26.7 µM'),
  ('CCc1nc2cc(F)c(/C=C/C(=O)NO)cc2c(=O)n1CCc1ccccc1', 'TGI', '1.74 µM'),
  ('CCOC(=O)c1ccc(N[C@@H]2c3cc4c(cc3C(c3cc(OC)c(O)c(OC)c3)[C@H]3C(=O)OCC32)OCO4)cc1O (stereo not given in full)', 'TGI', '1.56 µM'),
  ('Cc1ccc(N=C/C=C(\Nc2ccc(C)cc2)c2ccc(Cl)cc2)cc1', 'TGI', '35.9 µM'),
  ('COC1=C(OC)C(=O)C(Cc2c(C)nc3sccn23)=C(C)C1=O', 'TGI', '34.8 µM'),
  ('COc1cc2cc3c4cc(OC)c(OC)cc4cc[n+]3c(C)c2cc1OC (tested in a mixture with another compound)', 'TGI', '> 100 µM'),
  ('Cc1cc2ncnn2cc1Nc1ncc2c(n1)n(C1CCOCC1)c(=O)n2C', 'TGI', '78.2 µM');
